# reported Secreted Alkaline Phosphatase (percentage of GS ™-E ligand induction) Day 2; entries follow
- Test system: mutated ecdysone receptor-based gene switch
- Experiment: In vivo SEAP induction, ligand by IP injection
- Parameters: species or system C57BL/6 mouse
- Experimental setup: mouse serum, IP 2.6 μmol ligand 3 days after electroporation, day 2 after ligand

• COc1cc(C(=O)N(NC(=O)c2ccc3c(c2C)OCCO3)C(C)(C)C)cc(OC)c1O [RG-115009] = 4 percentage of GS ™-E ligand induction
• CCc1ccc(C(=O)NN(C(=O)c2cc(C)cc(C)c2)C(C)C(C)(C)C)cc1 (centres unmarked) [RG-103451] = 76 percentage of GS ™-E ligand induction

Query: Which Secreted Alkaline Phosphatase (percentage of GS ™-E ligand induction) Day 2 is listed for CCC(N(NC(=O)c1cccc(OC)c1C)C(=O)c1cc(OC)c(C)c(OC)c1)C(C)(C)C (centres unmarked) [RG-115820] ?
Result: 82 percentage of GS ™-E ligand induction

Query: Requested read-out: Secreted Alkaline Phosphatase (percentage of GS ™-E ligand induction) Day 2. Entry: CCc1ccc(C(=O)NN(C(=O)c2cc(C)cc(C)c2)C(C)(C)C)c(F)c1 [RG-101523]
Result: 85 percentage of GS ™-E ligand induction

Query: Item COc1cccc(C(=O)NN(C(=O)c2cc(Cl)c(F)c(Cl)c2)C(C)(C)C)c1C [RG-101382] has what recorded Secreted Alkaline Phosphatase (percentage of GS ™-E ligand induction) Day 2?
Result: 92 percentage of GS ™-E ligand induction

====

Listed compounds paired with reported 27-63 assay Rel Max FI
- Subject of test: GAL4 DBD (1-147)-CfEcR(DEF)/VP16AD-βRXREF-LmUSPEF (Choristoneura fumiferana)
- Experiment: cell-based
- Experimental setup: maximum fold induction at any concentration relative to that of GS-E ligand; CHO 27-63 cells
- Description: GAL4 DBD (1-147)-CfEcR(DEF)/VP16AD-βRXREF-LmUSPEF: […] Luciferase reporter gene expression was measured 48 h after cell treatment using Bright-Glo™ Luciferase Assay System from Promega (E2650). Luminescence was detected at room temperature using a Dynex MLX microtiter plate luminometer. Each assay was conducted in two separate wells, and the two values were averaged. Fold inductions were calculated by dividing relative light units (“RLU”) in ligand treated cells with RLU in DMSO treated cells. […]
I'd appreciate a reply containing only the number, no unit.

// below: answered compounds
* Cc1cc(C)cc(C(=O)N(NC(=O)c2cc3c(cc2Cl)OCO3)C(C)(C)C)c1 | 0.877
* CCc1c(C(=O)NN(C(=O)c2cc(F)ccc2F)C(C)(C)C)ccc2c1OCCO2 | 0.719

Query: I have this compound here, COc1cccc(C(=O)NN(C(=O)c2cc(Cl)cc(Br)c2)C(C)(C)C)c1C , and I need its recorded 27-63 assay Rel Max FI.
Result: 1.185

Query: Entry CCc1ccc(C(=O)NN(C(=O)c2cc(C)cc(C)c2)C(C)(C)C)c(F)c1 : reported 27-63 assay Rel Max FI = ?
Result: 0.943

====

- Subject of test: Bombyx mori EcR (VP16 fusion, CVBE switch construct) (Bombyx mori, UniProt P49881)
- Sequence (P49881 86-606): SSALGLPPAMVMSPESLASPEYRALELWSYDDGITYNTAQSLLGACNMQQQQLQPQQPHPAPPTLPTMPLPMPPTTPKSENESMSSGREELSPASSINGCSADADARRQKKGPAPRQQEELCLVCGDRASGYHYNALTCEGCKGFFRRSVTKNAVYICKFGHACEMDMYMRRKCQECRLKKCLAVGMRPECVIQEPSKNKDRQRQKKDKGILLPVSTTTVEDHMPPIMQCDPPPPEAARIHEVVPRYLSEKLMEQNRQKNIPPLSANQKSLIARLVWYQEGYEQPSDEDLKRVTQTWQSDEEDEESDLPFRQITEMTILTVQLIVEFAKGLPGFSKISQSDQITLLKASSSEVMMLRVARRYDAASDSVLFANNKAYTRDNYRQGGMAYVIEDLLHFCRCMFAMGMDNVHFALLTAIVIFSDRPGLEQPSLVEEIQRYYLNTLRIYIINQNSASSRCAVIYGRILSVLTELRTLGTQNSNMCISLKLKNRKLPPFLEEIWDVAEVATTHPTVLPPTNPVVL
- Sequence (P19793 whole entry partner, the tested form may be a part): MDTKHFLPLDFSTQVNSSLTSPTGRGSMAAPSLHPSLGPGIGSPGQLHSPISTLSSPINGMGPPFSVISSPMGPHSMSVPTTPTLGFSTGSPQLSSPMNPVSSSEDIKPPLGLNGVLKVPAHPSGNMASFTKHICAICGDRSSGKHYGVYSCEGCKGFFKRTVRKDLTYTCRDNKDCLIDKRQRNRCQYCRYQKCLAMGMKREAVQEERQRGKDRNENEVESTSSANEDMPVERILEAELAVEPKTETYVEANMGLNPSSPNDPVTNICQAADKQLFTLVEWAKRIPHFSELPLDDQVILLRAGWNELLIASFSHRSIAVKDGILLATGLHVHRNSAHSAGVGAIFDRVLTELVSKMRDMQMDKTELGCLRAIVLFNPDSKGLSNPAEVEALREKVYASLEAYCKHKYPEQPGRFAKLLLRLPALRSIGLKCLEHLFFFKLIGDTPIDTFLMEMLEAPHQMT
- Experiment: Z3 Assay (HEK-293 cells with CVBE and 6XEcRE LacZ, β-galactosidase reporter)
- Experimental setup: read-out: Z3 assay EC50; HEK-293 Z3 cells, β-galactosidase reporter; average of two wells
Reported endpoint: log10 EC50 (log10 of the value in nM)
Note: values are log10 of EC50 expressed in nM.

Query: Please look up its log10 EC50: COc1cccc(C(=O)NN(C(=O)c2cccc(C)c2)C(C)(C)C)c1C [RG-100694]
Result: 2.59

Query: Name the reported log10 EC50 value associated with the compound CCc1ccc(C(=O)NN(C(=O)c2cc(C)c(C)c(Cl)c2)C(C)(C)C)cc1 [RG-101863]
Result: 2.41

Query: Which value of log10 EC50 has been reported for CCc1ccc(C(=O)NN(C(=O)c2cc(C)ccc2[N+](=O)[O-])C(C)(C)C)cc1 [RG-101398] in the records?
Result: 2.45

Query: # query: log10 EC50 of entry COc1cccc(C(=O)NN(C(=O)c2cccnc2Cl)C(C)(C)C)c1C [RG-100127]
Result: 3.67

Query: log10 EC50 lookup needed for COc1cc(C)ccc1C(=O)N(NC(=O)c1cccc(OC)c1C)C(C)(C)C [RG-100769] , thanks.
Result: 2.34

Query: log10 EC50 for Cc1c(C(=O)NN(C(=O)c2cccc(F)c2)C(C)(C)C)ccc2c1CCCO2 [RG-115278] ?
Result: 2.41

Query: Could you tell me which log10 EC50 is on file for CCc1c(OC)cccc1C(=O)NN(C(=O)c1ccccc1[S+](C)[O-])C(C)(C)C (centres unmarked) [RG-115199] ?
Result: 3.54

====

- Subject of test: GAL4 DBD (1-147)-CfEcR(DEF)/VP16AD-βRXREF-LmUSPEF (Choristoneura fumiferana)
- Experiment: cell-based
- Experimental setup: read-out: 27-63 assay EC50; CHO 27-63 stable cell line, luciferase reporter; average of two wells
Quick reference for EC50 among some molecules
Give the value in µM but do not write µM after it.

The cases that follow already have their EC50 on record.
• Cc1c(C(=O)NN(C(=O)c2cc(F)c(Cl)cc2Cl)C(C)(C)C)ccc2c1CCCO2 = 1.18
• COc1cccc(C(=O)NN(C(=O)c2ccc(C(F)(F)F)n(C)c2=O)C(C)(C)C)c1C = 20
• CC(=O)c1cccc(C(=O)NN(C(=O)c2cc(C)cc(C)c2)C(C)(C)C)c1C = 1.5
• CCc1c(C(=O)NN(C(=O)c2cc(F)ccc2F)C(C)(C)C)ccc2c1OCCO2 = 1.03
• Cc1c(C(=O)NN(C(=O)c2cccc(F)c2)C(C)(C)C)ccc2c1CCCO2 = 0.885

Could you now look at the following molecule, please?
Query: Can you look up the measured EC50 of COc1cccc(C(=O)NN(C(=O)c2cc(C)cc(C)c2)C(C)(C)C)c1N for me?
Result: 0.758

====

- Experiment: Bi-directional permeability, CACO-2
- Assay type: in vitro ADME
- Experimental setup: human, pH 7; Caco-2 efflux ratio; read-out: Papp B-A / Papp A-B Ratio
Reported endpoint: efflux ratio at 2 h, 10 μM

Query: Param item = CCc1c(OC)cccc1C(=O)NN(C(=O)c1cc(C)cc(C)c1)C(C)(C)C ; retrieve measured efflux ratio at 2 h, 10 μM.
Result: 0.7

====

- Subject of test: Bombyx mori EcR (VP16 fusion, CVBE switch construct) (Bombyx mori, UniProt P49881)
- Experiment: Z3 Assay (HEK-293 cells with CVBE and 6XEcRE LacZ, β-galactosidase reporter)
- Experimental setup: 33 uM ligand; ligand treated / DMSO treated cells; average of two wells
- Protocol: Dr. F. Gage provided a population of stably transformed cells containing CVBE and 6XEcRE as described in Suhr, S. T., Gil, E. B., Senut M. C., Gage, F. H. (1998) Proc. Natl. Acad. Sci. USA 95, 7999-804. […] Dilution cloning was used to isolate individual clones. […] Individual clones were evaluated based on their response in the presence and absence of test ligands. […]
This section presents molecules with their documented Fold Induction, Z3 Assay, 33 uM values.
The response must contain the number and no unit.

Solved cases below.
- CCc1c(OC)cccc1C(=O)NN(C(=O)c1cnc(C)cn1)C(C)(C)C: 61
- CCc1c(OC)cccc1C(=O)NN(C(=O)c1cccc(C#N)c1)C(C)(C)C: 325
- Cc1c(C(=O)NN(C(=O)c2ccc(F)cc2)C(C)(C)C)ccc2c1OCO2: 423
- COc1cccc(C(=O)NN(C(=O)c2cccnc2Cl)C(C)(C)C)c1C: 245

Now let's try a different one.
Query: Please look up its Fold Induction, Z3 Assay, 33 uM: Cc1cc(C)cc(C(=O)N(NC(=O)c2ccc3c(c2)COCO3)C(C)(C)C)c1
Result: 394

====

- Subject of test: Bombyx mori EcR (VP16 fusion, CVBE switch construct) (Bombyx mori, UniProt P49881)
- Experiment: Z3 Assay (HEK-293 cells with CVBE and 6XEcRE LacZ, β-galactosidase reporter)
- Experimental setup: 33 uM ligand; ligand treated / DMSO treated cells; average of two wells
Reported endpoint: Fold Induction, Z3 Assay, 33 uM
Please reply with the number alone, leaving off any unit.

Worked set:
* Cc1ccc(C(=O)NN(C(=O)c2cc(C)cc(C)c2)C(C)(C)C)cc1 [RG-101542] | 324
* C=Cc1c(OC)cccc1C(=O)NN(C(=O)c1cc(F)c(Cl)cc1Cl)C(C)(C)C [RG-115534] | 249
* CCc1ccc(C(=O)NN(C(=O)c2cc(C)c(Cl)c(C)c2)C(C)(C)C)cc1 [RG-101862] | 250

Below: the item to evaluate.
Query: Item under review: CCc1c(C(=O)NN(C(=O)c2cccc(C(F)(F)F)c2)C(C)(C)C)ccc2c1OCO2 [RG-115260] . Reported Fold Induction, Z3 Assay, 33 uM?
Result: 526

All values here come from patent US9102648B1.
